Recorded IC50, one value per entry.
- System: OCI-LY10
- assay-name: CTG Cell Viability Assay - OCI-LY10
- Type: cell-based, human
- test-conditions: Homo sapiens, OCI-Ly10, 96 h, OCI-LY10, 4 days; read-out: CTG Cell Viability Assay - OCI-LY10: Average external-IC50
property: IC50

1) CN(C[C@H]1CC[C@H](n2cc(NC(=O)c3cnn4ccc(N5C[C@H]6C[C@@H]5CO6)nc34)c(C(F)F)n2)CC1)C1CCN(CCNc2cccc3c2C(=O)N(C2CCC(=O)NC2=O)C3=O)CC1 (some centres unmarked) :: 100 to 500 nM
2) Cn1c(=O)n(C2CCC(=O)NC2=O)c2ccc(CN3CCC(CC(=O)N4CCC(n5cc(NC(=O)c6coc(-c7ccnc(NCC8CC8)c7)n6)c(C(F)F)n5)CC4)CC3)cc21 (centres unmarked) :: 100 to 500 nM
3) C[C@H](C#Cc1cccc2c1N(C)C(=O)C2C1CCC(=O)NC1=O)OC1CCN(C[C@H]2CC[C@H](n3cc(NC(=O)c4cnn5ccc(N6C[C@H]7C[C@@H]6CO7)nc45)c(C(F)F)n3)CC2)CC1 (some centres unmarked) :: > 1000 nM
4) CN(C[C@H]1CC[C@H](n2cc(NC(=O)c3coc(-c4ccnc(NCC5CC5)c4)n3)c(C(F)F)n2)CC1)C1CN(Cc2cccc3c2n(C)c(=O)n3C2CCC(=O)NC2=O)C1 (some centres unmarked) :: > 1000 nM
5) Cn1c(=O)n(C2CCC(=O)NC2=O)c2cccc(CCC3CC4(CCN(C[C@H]5CC[C@H](n6cc(NC(=O)c7cnn8ccc(N9C[C@H]%10C[C@@H]9CO%10)nc78)c(C(F)F)n6)CC5)CC4)C3)c21 (some centres unmarked) :: > 1000 nM

---

Recorded DC50, one value per entry.
- experimental-target: IRAK4 (Homo sapiens (Human))
- assay-name: IRAK4 MSD degradation in OCI-LY10
- Format: cell-based
- test-conditions: OCI-LY10, 4 hrs; read-out: IRAK4 MSD degradation in OCI-LY10 at 4 hrs: DC50
- Method: Degradation of IRAK4 in OCI-LY10 was quantitatively measured using Meso Scale Discovery technology. […] Compounds were then added to the assay plates with a final top concentration of 1 to 10 μM in a 1:3 dilution series with total of 8 doses. […] The assay plates were then incubated at room temperature for 1 hour, washed 3 times with 150 μL/well TB ST buffer, and 150 μL/well MSD reading buffer (Meso Scale Discovery catalog number R92TC-2) was added. […]
property: DC50

1) O=C1CCC(N2C(=O)c3cccc(NCCOCCCN4CCN(c5ncc(-n6cc(NC(=O)c7cnn8ccc(N9C[C@H]%10C[C@@H]9CO%10)nc78)c(C(F)F)n6)cn5)CC4)c3C2=O)C(=O)N1 (some centres unmarked) :: 100 to 1000 nM
2) Cn1c(=O)n(C2CCC(=O)NC2=O)c2cccc(C#CCOC3CCN(C[C@H]4CC[C@H](n5cc(NC(=O)c6cnn7ccc(N8CCCOCC8)nc67)c(C(F)F)n5)CC4)CC3)c21 (some centres unmarked) :: < 10 nM
3) C[C@@H]1CN(c2ccn3ncc(C(=O)NC4=NC([C@H]5CC[C@H](CN6CCC(CC#Cc7cccc8c7n(C)c(=O)n8C7CCC(=O)NC7=O)CC6)CC5)N=C4C(F)F)c3c2)C[C@@H](C)O1 (some centres unmarked) :: 10 to 100 nM
4) Cn1c(=O)n(C2CCC(=O)NC2=O)c2cccc(CCCOC3CCN(C[C@H]4CC[C@H](n5cc(NC(=O)c6cnn7cccnc67)c(N6CCOCC6)n5)CC4)CC3)c21 (some centres unmarked) :: 100 to 1000 nM
5) O=C1CCC(N2C(=O)c3cccc(N[C@H]4C[C@H](OC5CCN(C[C@H]6CC[C@H](n7cc(NC(=O)c8cnn9ccc(N%10CCOCC%10)nc89)c(C(F)F)n7)CC6)CC5)C4)c3C2=O)C(=O)N1 (some centres unmarked) :: 10 to 100 nM

---

- experimental-target: IRAK4 (Homo sapiens (Human), UniProt Q9NWZ3)
- Sequence (Q9NWZ3 whole entry): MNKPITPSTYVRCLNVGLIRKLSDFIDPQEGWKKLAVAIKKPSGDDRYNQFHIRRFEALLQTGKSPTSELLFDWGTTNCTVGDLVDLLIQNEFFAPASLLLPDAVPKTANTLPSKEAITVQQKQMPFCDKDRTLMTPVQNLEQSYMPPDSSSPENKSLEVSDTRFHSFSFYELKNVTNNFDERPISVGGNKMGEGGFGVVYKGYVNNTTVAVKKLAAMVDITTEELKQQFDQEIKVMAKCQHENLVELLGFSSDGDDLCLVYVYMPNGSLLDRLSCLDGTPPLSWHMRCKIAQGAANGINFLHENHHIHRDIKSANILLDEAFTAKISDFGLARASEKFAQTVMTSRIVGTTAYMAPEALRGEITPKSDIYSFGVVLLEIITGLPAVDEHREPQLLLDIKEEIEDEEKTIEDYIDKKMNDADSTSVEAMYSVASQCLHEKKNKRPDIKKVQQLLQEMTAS
- assay-name: IRAK4 MSD degradation in OCI-LY10
- Type: cell-based
- test-conditions: OCI-LY10, 24 hrs, MSD; read-out: IRAK4 MSD degradation in OCI-LY10 at 24 hrs: Average external-Abs DC50
Recorded DC50, one value per entry.
property: DC50

1) O=C1CCC(N2C(=O)c3cccc(NCCCOCCCS(=O)(=O)NC(=O)[C@H]4CC[C@H](n5cc(NC(=O)c6cnn7ccc(N8C[C@H]9CC8CO9)nc67)c(C(F)F)n5)CC4)c3C2=O)C(=O)N1 (stereo partly drawn) :: > 1000 nM
2) Cc1ccc(-n2nc(C3CCN(CCCCCOCCCc4ccc5c(c4)n(C)c(=O)n5C4CCC(=O)NC4=O)CC3)cc2NC(=O)c2cnn3cccnc23)nc1 (stereo not drawn) :: > 1000 nM
3) O=C1CCC(N2C(=O)c3cccc(NCCCOCC4CCN(C[C@H]5CC[C@H](n6cc7cc(NC(=O)c8cccc(C(F)(F)F)n8)c(C(F)F)cc7n6)CC5)CC4)c3C2=O)C(=O)N1 (stereo partly drawn) :: 10 to 100 nM

---

- System: OCI-LY10
- assay-name: CTG Cell Viability Assay - OCI-LY10
- Assay type: cell-based, human
- test-conditions: Homo sapiens, OCI-Ly10, 96 h, OCI-LY10, 4 days; read-out: CTG Cell Viability Assay - OCI-LY10: Average external-IC50
property: IC50

1) Cn1c(=O)n(C2CCC(=O)NC2=O)c2cccc(CCCOC3CCN(C[C@H]4CC[C@H](n5cc(NC(=O)c6cnn7ccc(N8CCOCC8)nc67)c(C(C)(C)O)n5)CC4)CC3)c21 (some centres unmarked) :: > 1 µM
2) O=C1CCC(N2C(=O)c3cccc(N[C@H]4C[C@H](OC5CCN(C[C@H]6CC[C@H](n7cc(NC(=O)c8cnn9ccc(N%10CCOCC%10)nc89)c(C(F)F)n7)CC6)CC5)C4)c3C2=O)C(=O)N1 (some centres unmarked) :: 0.5 to 1 µM
3) O=C1CCC(N2Cc3c(NCCCOC4CCN(C[C@H]5CC[C@H](n6cc(NC(=O)c7cnn8ccc(N9CCOCC9)nc78)c(C(F)F)n6)CC5)CC4)cccc3C2=O)C(=O)N1 (some centres unmarked) :: > 1 µM
4) Cn1c(=O)n(C2CCC(=O)NC2=O)c2cccc(CCCOC3CCN(C[C@H]4CC[C@H](n5cc(NC(=O)c6cnn7cccnc67)c(N6CCOCC6)n5)CC4)CC3)c21 (some centres unmarked) :: > 1 µM
5) Cn1c(=O)n(C2CCC(=O)NC2=O)c2cccc(CCCN3CC4CN(C(=O)[C@H]5CC[C@H](n6cc(NC(=O)c7cnn8ccc(N9C[C@H]%10C[C@@H]9CO%10)nc78)c(C(F)F)n6)CC5)CC4C3)c21 (some centres unmarked) :: > 1 µM
6) O=C1CCC(n2c3cccc(C#CCOC4CCN(C[C@H]5CC[C@H](n6cc(NC(=O)c7cnn8ccc(N9C[C@H]%10C[C@@H]9CO%10)nc78)c(C(F)F)n6)CC5)CC4)c3c3cccnc32)C(=O)N1 (some centres unmarked) :: > 1 µM
7) Cn1c(=O)n(C2CCC(=O)NC2=O)c2cccc(CCCC3CCN(C[C@H]4CC[C@H](n5cc(NC(=O)c6cnn7ccc(N8CCCOCC8)nc67)c(C(F)F)n5)CC4)CC3)c21 (some centres unmarked) :: > 1 µM
8) Cn1c(=O)n(C2CCC(=O)NC2=O)c2ccc(CCCCCCC(=O)N3CCN([C@H]4CC[C@H](Nc5ncnc6[nH]cc(C7CCOCC7)c56)CC4)CC3)cc21 (some centres unmarked) :: 0.1 to 0.5 µM
9) Cn1c(=O)n(C2CCC(=O)NC2=O)c2ccc(CN3CCN([C@@H]4CCN(C[C@H]5CC[C@H](n6cc(NC(=O)c7coc(-c8ccnc(NCC9CC9)c8)n7)c(C(F)F)n6)CC5)C4)CC3)cc21 (some centres unmarked) :: > 1 µM
10) CC[C@@H]1[C@H](F)C(=O)N[C@@H]1COc1ncc(C#CC2CCN(CCCOCCCc3cccc4c3n(C)c(=O)n4C3CCC(=O)NC3=O)CC2)c2cc(C(N)=O)c(OC)cc12 (some centres unmarked) :: > 1 µM
11) O=C1CCC(n2c3cc(CCCOCCOCCNC[C@H]4CC[C@H](n5cc(NC(=O)c6coc(-c7ccnc(NCC8CC8)c7)n6)c(C(F)F)n5)CC4)ccc3c3cccnc32)C(=O)N1 (some centres unmarked) :: > 1 µM
12) C[C@H](CCc1cccc2c1n(C)c(=O)n2C1CCC(=O)NC1=O)OC1CCN(C[C@H]2CC[C@H](n3cc(NC(=O)c4cnn5ccc(N6C[C@H]7C[C@@H]6CO7)nc45)c(C(F)F)n3)CC2)CC1 (some centres unmarked) :: > 1 µM
13) Cn1c(=O)n(C2CCC(=O)NC2=O)c2cccc(CCCN3CCC4(CC3)CN(C(=O)[C@H]3CC[C@H](n5cc(NC(=O)c6cnn7ccc(N8C[C@H]9C[C@@H]8CO9)nc67)c(C(F)F)n5)CC3)C4)c21 (some centres unmarked) :: > 1 µM
14) CN(CCOCCOCCOC12CC3CC(CC(C3)C1)C2)C[C@H]1CC[C@H](n2cc(NC(=O)c3cnn4ccc(N5CCNCC5)nc34)c(C(F)F)n2)CC1 :: > 1 µM
15) CC[C@@H]1[C@H](F)C(=O)N[C@@H]1COc1ncc(C#C[C@H]2CC[C@H](CN3CCC(OCCCc4ccc5c(c4)n(C)c(=O)n5C4CCC(=O)NC4=O)CC3)CC2)c2cc(C(N)=O)c(OC)cc12 (some centres unmarked) :: > 1 µM
16) Cn1c(=O)n(C2CCC(=O)NC2=O)c2cccc(CCN3CC4(CCN(C[C@H]5CC[C@H](n6cc(NC(=O)c7cnn8ccc(N9CCOCC9)nc78)c(C(F)F)n6)CC5)CC4)C3)c21 (some centres unmarked) :: < 0.05 µM
17) CC[C@@H]1[C@H](F)C(=O)N[C@@H]1COc1ncc(C#CC2CCN(CCCC3CCN(c4cccc5c4C(=O)N(C4CCC(=O)NC4=O)C5=O)CC3)CC2)c2cc(C(N)=O)c(OC)cc12 (some centres unmarked) :: > 1 µM
18) Cn1c(=O)n(C2CCC(=O)NC2=O)c2cccc(CCCN3CC4(CCN(C(=O)[C@H]5CC[C@H](n6cc(NC(=O)c7cnn8ccc(N9C[C@H]%10C[C@@H]9CO%10)nc78)c(C(F)F)n6)CC5)CC4)C3)c21 (some centres unmarked) :: > 1 µM
19) CN(CCC(C)(C)O)c1ccn2ncc(C(=O)Nc3cn([C@H]4CC[C@H](CN(C)[C@H]5CC[C@H](Nc6cccc7c6C(=O)N(C6CCC(=O)NC6=O)C7=O)CC5)CC4)nc3C(F)F)c2n1 (some centres unmarked) :: 0.1 to 0.5 µM
20) Cn1c(=O)n(C2CCC(=O)NC2=O)c2cccc(CCCOC[C@@H]3CN(C[C@H]4CC[C@H](n5cc(NC(=O)c6cnn7ccc(N8CCOCC8)nc67)c(C(F)F)n5)CC4)CCO3)c21 (some centres unmarked) :: > 1 µM

Where do the numbers come from? From patent US11352350B2.
